Test: Tmax in rat at 1 or 10 mg/kg, iv or po by LC-MS/MS analysis
Type: ADME, organism-based
Settings: in vivo
readout kind: Tmax

Quote Tmax reported for Cc1cc(C)cc([C@@H]2CCCN2Cc2ccc(Oc3ccc(C(N)=O)cc3F)cc2)c1 [ATICAPRANT] please. 1 to 2 h

---

Molecular target: Delta-type opioid receptor (Homo sapiens)
Sequence (P41143 whole entry): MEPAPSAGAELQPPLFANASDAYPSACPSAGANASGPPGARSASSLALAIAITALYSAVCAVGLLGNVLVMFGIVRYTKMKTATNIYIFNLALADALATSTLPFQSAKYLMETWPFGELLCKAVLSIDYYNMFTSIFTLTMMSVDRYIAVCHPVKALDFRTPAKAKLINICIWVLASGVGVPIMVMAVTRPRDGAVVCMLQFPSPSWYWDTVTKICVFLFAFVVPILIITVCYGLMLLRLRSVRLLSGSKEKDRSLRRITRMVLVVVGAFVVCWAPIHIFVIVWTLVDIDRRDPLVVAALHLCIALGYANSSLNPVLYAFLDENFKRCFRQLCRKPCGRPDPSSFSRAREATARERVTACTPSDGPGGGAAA
Experiment: Displacement of [3H]DPDPE from recombinant human delta-opioid receptor expressed in HEK293 cell membranes at 1 X 10^-6 M after 60 mins by liquid scintillation counting method relative to control
Hi there, I'd appreciate the recorded inhibition for every entry that follows.
Give bare numbers, in %.

compound	inhibition (%)
Cc1cc(C)cc(C2CCCN2Cc2ccc(Oc3ccc(C(N)=O)cc3)c(Cl)c2)c1 (centres undefined)	36.5

Go through the list and state inhibition for each entry.
1. NC(=O)c1ccc(Oc2ccc(CN3CCCC3c3ccc(F)cc3)cc2)c2ccccc12 (centres undefined)
2. Cc1cc(C)cc(C2CCCN2Cc2ccc(Oc3ccc(C(N)=O)cc3F)cc2)c1 (racemic)
3. Cc1cc(C)cc(C2CCCN2Cc2ccc(Oc3ccc(C(N)=O)c4ccccc34)cc2)c1 (centres undefined)

[0, 45.5, 0]

The measurements presented in this section are drawn from ChEMBL document CHEMBL4049389.
